- Assay Target: T1, human GIP receptor (human) (UniProt P48546)
- T1 sequence (looked up): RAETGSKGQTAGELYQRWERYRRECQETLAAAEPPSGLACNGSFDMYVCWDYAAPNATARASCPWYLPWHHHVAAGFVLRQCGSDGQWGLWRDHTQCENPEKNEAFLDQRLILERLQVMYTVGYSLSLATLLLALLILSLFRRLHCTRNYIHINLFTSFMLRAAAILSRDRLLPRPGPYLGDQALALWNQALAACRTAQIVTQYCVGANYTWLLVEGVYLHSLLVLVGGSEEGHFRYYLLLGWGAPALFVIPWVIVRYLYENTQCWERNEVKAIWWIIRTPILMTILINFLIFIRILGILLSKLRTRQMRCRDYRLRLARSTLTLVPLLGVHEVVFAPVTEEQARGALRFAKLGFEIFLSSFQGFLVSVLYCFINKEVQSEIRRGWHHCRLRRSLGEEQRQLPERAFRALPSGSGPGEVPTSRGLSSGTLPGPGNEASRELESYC
- Test Protocol: cell-based or functional assay
*1 amine or outer side, *2 acyl side, *3 side chain or, on linkers, in order; H or OH if unused. Where no end group is shown, it is not given here. Side-chain parts run from the residue outwards. [ ]: non-standard residue; d: D form. The star is where a group is joined. αMePhe(2-F) = C[C@](N)(Cc1ccccc1F)C(=O)O; γGlu = O=C(O)[C@H](CCC(=O)[*:2])N[*:1]; C14 diacid = O=C(O)CCCCCCCCCCCCC(=O)*; αMeY = C[C@](N)(Cc1ccc(O)cc1)C(=O)O; αMeL = CC(C)C[C@](C)(N)C(=O)O; Orn = NCCC[C@H](N)C(=O)O; AEEA = NCCOCCOCC(=O)O; Aib = CC(C)(N)C(=O)O
Rule: measured cAMP EC50 below 10 pM gets True; anything equal to or greater than 10 pM gets False.

Check if cAMP EC50 falls below 10 pM for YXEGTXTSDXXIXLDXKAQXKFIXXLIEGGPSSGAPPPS (Y-Aib-EGT-αMeF(2F)-TSD-4Pal-Aib-I-αMeL-LD-Orn-K((2-[2-(2-Amino-ethoxy)-ethoxy]-acetyl)2-(γ-Glu)-CO-(CH2)10-CH3)AQ-Aib-K((2-[2-(2-Amino-ethoxy)-ethoxy]-acetyl)2-(γ-Glu)-CO-(CH2)10-CH3)FI-(D-Glu)-αMeY-LIEGGPSSGAPPPS-NH2) [Example 322] .
True

Subsequent entry: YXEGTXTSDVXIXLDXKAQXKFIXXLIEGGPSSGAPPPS (Y-Aib-EGT-αMeF(2F)-TSDV-Aib-I-αMeL-LD-Orn-K((2-[2-(2-Amino-ethoxy)-ethoxy]-acetyl)-(γ-Glu)-CO-(CH2)12-CO2H)AQ-Aib-K((2-[2-(2-Amino-ethoxy)-ethoxy]-acetyl)-(γ-Glu)-CO-(CH2)12-CO2H)FI-(D-Glu)-αMeY-LIEGGPSSGAPPPS-NH2) [Example 398]
False

Subsequent entry: Y[Aib]EGT[αMePhe(2-F)]TSDV[Aib]I[αMeL]LD[Orn]K([AEEA-AEEA-γGlu-C14 diacid])AQ[Aib][Orn]FI[dE][αMeY]LIK([AEEA-AEEA-γGlu-C14 diacid])GGPSSGAPPPS-NH2 [Example 350]
False

Subsequent entry: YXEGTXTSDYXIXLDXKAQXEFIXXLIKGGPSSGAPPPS (Y-Aib-EGT-αMeF(2F)-TSDY-Aib-I-αMeL-LD-Orn-K((2-[2-(2-Amino-ethoxy)-ethoxy]-acetyl)-(γ-Glu)-(10-(4-carboxyphenoxy)decanoyl))AQ-Aib-EFI-(D-Glu)-αMeY-LIK((2-[2-(2-Amino-ethoxy)-ethoxy]-acetyl)-(γ-Glu)-(10-(4-carboxyphenoxy)decanoyl))GGPSSGAPPPS-NH2) [Example 373]
False

Subsequent entry: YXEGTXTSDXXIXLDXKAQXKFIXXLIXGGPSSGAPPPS (Y-Aib-EGT-αMeF(2F)-TSD-4Pal-Aib-I-αMeL-LD-Orn-K((2-[2-(2-Amino-ethoxy)-ethoxy]-acetyl)2-(γ-Glu)-CO-(CH2)10-CH3)AQ-Aib-K((2-[2-(2-Amino-ethoxy)-ethoxy]-acetyl)2-(γ-Glu)-CO-(CH2)10-CH3)FI-(D-Glu)-αMeY-LI-Orn-GGPSSGAPPPS-NH2) [Example 413]
False

Subsequent entry: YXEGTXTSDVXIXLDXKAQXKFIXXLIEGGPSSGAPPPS (Y-Aib-EGT-αMeF(2F)-TSDV-Aib-I-αMeL-LD-Orn-K((2-[2-(2-Amino-ethoxy)-ethoxy]-acetyl)-(γ-Glu)-(10-(4-carboxyphenoxy)decanoyl))AQ-Aib-K((2-[2-(2-Amino-ethoxy)-ethoxy]-acetyl)-(γ-Glu)-(10-(4-carboxyphenoxy)decanoyl))FI-(D-Glu)-αMeY-LIEGGPSSGAPPPS-NH2) [Example 378]
False

Subsequent entry: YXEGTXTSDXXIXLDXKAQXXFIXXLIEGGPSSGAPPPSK (Y-Aib-EGT-αMeF(2F)-TSD-4Pal-Aib-I-αMeL-LD-Orn-K((2-[2-(2-Amino-ethoxy)-ethoxy]-acetyl)3-(γ Glu)-CO-(CH2)10CH3)AQ-Aib-Orn-FI-(D-Glu)-αMeY-LIEGGPSSGAPPPSK((2-[2-(2-Amino-ethoxy)-ethoxy]-acetyl)3-(γ-Glu)-CO-(CH2)10-CH3)-NH2) [Example 435]
True

Subsequent entry: YXEGTXTSDXXIXLDXQAQXKFIXXLIEGGPSSGAPPPSK (Y-Aib-EGT-αMeF(2F)-TSD-4Pal-Aib-I-αMeL-LD-Orn-QAQ-Aib-K((2-[2-(2-Amino-ethoxy)-ethoxy]-acetyl)2-(γ-Glu)-CO-(CH2)12-CO2H)FI-(D-Glu)-αMeY-LIEGGPSSGAPPPSK((2-[2-(2-Amino-ethoxy)-ethoxy]-acetyl)2-(γ-Glu)-CO-(CH2)12-CO2H)-NH2) [Example 489]
False

Subsequent entry: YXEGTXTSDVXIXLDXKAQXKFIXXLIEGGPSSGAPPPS (Y-Aib-EGT-αMeF(2F)-TSDV-Aib-I-αMeL-LD-Orn-K((2-[2-(2-Amino-ethoxy)-ethoxy]-acetyl)2-(γ-Glu)-(10-(4-carboxyphenoxy)decanoyl))AQ-Aib-K((2-[2-(2-Amino-ethoxy)-ethoxy]-acetyl)2-(γ-Glu)-(10-(4-carboxyphenoxy)decanoyl))FI-(D-Glu)-αMeY-LIEGGPSSGAPPPS-NH2) [Example 319]
False

Subsequent entry: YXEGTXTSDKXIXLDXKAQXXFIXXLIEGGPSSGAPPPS (Y-Aib-EGT-αMeF(2F)-TSDK((2-[2-(2-Amino-ethoxy)-ethoxy]-acetyl)2-(γ-Glu)-CO-(CH2)10-CH3)-Aib-I-αMeL-LD-Orn-K((2-[2-(2-Amino-ethoxy)-ethoxy]-acetyl)2-(γ-Glu)-CO-(CH2)10-CH3)AQ-Aib-Orn-FI-(D-Glu)-αMeY-LIEGGPSSGAPPPS-NH2) [Example 417]
True

Subsequent entry: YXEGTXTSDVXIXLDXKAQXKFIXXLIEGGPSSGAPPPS (Y-Aib-EGT-αMeF(2F)-TSDV-Aib-I-αMeL-LD-Orn-K((2-[2-(2-Amino-ethoxy)-ethoxy]-acetyl)2-(γ-Glu)-CO-(CH2)12-CO2H)AQ-Aib-K((2-[2-(2-Amino-ethoxy)-ethoxy]-acetyl)2-(γ-Glu)-CO-(CH2)12-CO2H)FI-(D-Glu)-αMeY-LIEGGPSSGAPPPS-NH2) [Example 318]
False

Subsequent entry: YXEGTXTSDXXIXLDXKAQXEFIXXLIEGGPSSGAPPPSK (Y-Aib-EGT-αMeF(2F)-TSD-4Pal-Aib-I-αMeL-LD-Orn-K((2-[2-(2-Amino-ethoxy)-ethoxy]-acetyl)2-(γ-Glu)-CO-(CH2)10-CH3)AQ-Aib-EFI-(D-Glu)-αMeY-LIEGGPSSGAPPPSK((2-[2-(2-Amino-ethoxy)-ethoxy]-acetyl)2-(γ-Glu)-CO-(CH2)10-CH3)-NH2) [Example 324]
True

Subsequent entry: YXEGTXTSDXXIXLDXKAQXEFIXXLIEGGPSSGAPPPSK (Y-Aib-EGT-αMeF(2F)-TSD-4Pal-Aib-I-αMeL-LD-Orn-K((2-[2-(2-Amino-ethoxy)-ethoxy]-acetyl)2-(γ-Glu)-CO-(CH2)12-CO2H)AQ-Aib-EFI-(D-Glu)-αMeY-LIEGGPSSGAPPPSK((2-[2-(2-Amino-ethoxy)-ethoxy]-acetyl)2-(γ-Glu)-CO-(CH2)12-CO2H)-NH2) [Example 359]
False
